measured.target: human recombinant histamine H2 receptor (Homo sapiens)
Construct: expressed in transfected cells; host or cells: CHO-K1 cells
procedure.summary: Histamine H2 radioligand binding ([125I]Aminopotentidine)
measurement.setup: percent inhibition of specific binding; screened at 1 μM; read-out: Inhibition of ligand binding, Hist. H2
Can you tell me inhibition at 1 µM for the items I'm about to list?
In your response, the unit should come after the numeric value.

Problem: inhibition at 1 µM for "CN1CCc2c(c3cc(Cl)ccc3n2CC(=O)N2CCNC(=O)C2)C1" ?
Solution: 16%

Problem: inhibition at 1 µM for "CCN1CCc2c(c3cc(C)ccc3n2CCc2ccc(C)cc2)C1" ?
Solution: 73%

Problem: inhibition at 1 µM for "Cc1ccc(CCn2c3c(c4cc(Cl)ccc42)CN(c2cccc(C(F)(F)F)c2)CC3)cn1" ?
Solution: 10%

Problem: inhibition at 1 µM for "CN1CCc2c(c3cc(Cl)ccc3n2CCc2cncnc2)C1" ?
Solution: 19%

Problem: inhibition at 1 µM for "CN1CCc2c(c3cc(Cl)ccc3n2CCC(=O)N2CCCCC2)C1" ?
Solution: 12%

Problem: inhibition at 1 µM for Cc1ccc2c(c1)c1c(n2CC(=O)N2CCCC(C)C2)CCN(C)C1 (stereo not drawn) ?
Solution: 14%

Problem: inhibition at 1 µM for "CCc1ccc2c(c1)c1c(n2CCc2ccc(C)nc2)CCN(C)C1" ?
Solution: 68%

Problem: inhibition at 1 µM for "CCN1CCc2c(c3ccccc3n2CCc2ccccc2)C1" ?
Solution: 51%

Problem: inhibition at 1 µM for "CN1CCc2c(c3cc(C(F)(F)F)ccc3n2CCc2ccccc2)C1" ?
Solution: 71%

* * *

measured.target: human recombinant histamine H1 receptor (Homo sapiens)
Construct: expressed in transfected cells; host or cells: CHO cells
Sequence (P35367 whole entry): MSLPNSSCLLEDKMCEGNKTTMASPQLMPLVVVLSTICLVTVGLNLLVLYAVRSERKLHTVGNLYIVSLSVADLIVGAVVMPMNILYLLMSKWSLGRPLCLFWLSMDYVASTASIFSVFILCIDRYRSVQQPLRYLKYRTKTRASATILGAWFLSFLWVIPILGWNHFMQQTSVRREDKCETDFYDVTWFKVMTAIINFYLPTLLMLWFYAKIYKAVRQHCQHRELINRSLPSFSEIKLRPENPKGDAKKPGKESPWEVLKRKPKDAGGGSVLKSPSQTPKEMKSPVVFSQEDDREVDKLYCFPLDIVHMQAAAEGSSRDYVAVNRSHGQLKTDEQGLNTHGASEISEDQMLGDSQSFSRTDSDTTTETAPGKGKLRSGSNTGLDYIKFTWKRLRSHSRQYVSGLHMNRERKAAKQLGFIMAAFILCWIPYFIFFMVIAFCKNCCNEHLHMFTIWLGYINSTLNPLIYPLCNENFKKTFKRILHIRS
procedure.summary: Histamine H1 radioligand binding ([3H]Pyrilamine)
measurement.setup: 1 μM compound; […] [3H]Pyrilamine; read-out: Histamine Binding H1, percent inhibition of specific binding
Decide by inhibition at 1 µM: equal to or exceeding 80% means 1 (yes), less means 0 (no).

Problem: Form field: inhibition at 1 µM at least 80%? Entry: Cc1ccc2c(c1)c1c(n2CCc2ccc(C)nc2)CCNC1 [Compound 230]
Solution: 0 (no)

Problem: Form field: inhibition at 1 µM at least 80%? Entry: CC1CCN(C(=O)Cn2c3c(c4cc(Cl)ccc42)CN(C)CC3)CC1 [Compound 237]
Solution: 0 (no)

Problem: Form field: inhibition at 1 µM at least 80%? Entry: Cc1ccc2c(c1)c1c(n2CCC(=O)N2CCC(NC(=O)OC(C)(C)C)CC2)CCN(C)C1 [Compound 226]
Solution: 1 (yes)

Problem: Form field: inhibition at 1 µM at least 80%? Entry: CN1CCc2c(c3ccccc3n2CCc2ccncc2)C1 [Compound 10]
Solution: 1 (yes)

Problem: Form field: inhibition at 1 µM at least 80%? Entry: Cc1ccc2c(c1)c1c(n2Cc2ccccc2)CCN(C)C1 [Compound 137]
Solution: 0 (no)

Problem: Form field: inhibition at 1 µM at least 80%? Entry: CCOC(=O)N1CCc2c(c3cc(C)ccc3n2CCc2ccccc2)C1 [Compound 24]
Solution: 0 (no)

Problem: Form field: inhibition at 1 µM at least 80%? Entry: CN1CCc2c(c3cc(Cl)ccc3n2CCc2ccccc2)C1 [Compound 36]
Solution: 1 (yes)

Problem: Form field: inhibition at 1 µM at least 80%? Entry: Cc1ccc2c(c1)c1c(n2CCC(=O)N2CCC(N)CC2)CCN(C)C1 [Compound 231]
Solution: 0 (no)

Problem: Form field: inhibition at 1 µM at least 80%? Entry: CN1Cc2c(n(CCc3noc(-c4ccccc4)n3)c3ccc(Cl)cc23)CC12CC2 [Compound 223]
Solution: 1 (yes)

Problem: Form field: inhibition at 1 µM at least 80%? Entry: Cc1ccc2c(c1)c1c(n2CCc2ccc(C)nc2)C(Br)C(=O)N(C)C1 (stereo not shown) [Compound 232]
Solution: 0 (no)

Problem: Form field: inhibition at 1 µM at least 80%? Entry: FC(F)(F)c1ccc2c(c1)c1c(n2CCc2noc(-c3ccccc3)n2)CCN(C2CC2)C1 [Compound 222]
Solution: 1 (yes)

Problem: Form field: inhibition at 1 µM at least 80%? Entry: Cc1ccc2c(c1)c1c(n2CCc2ccccc2F)CCN(C)C1 [Compound 34]
Solution: 1 (yes)

Problem: Form field: inhibition at 1 µM at least 80%? Entry: Cc1ccc2c(c1)c1c(n2CCc2ccccc2)CCN(C2CC2)C1 [Compound 35]
Solution: 1 (yes)

Problem: Form field: inhibition at 1 µM at least 80%? Entry: Cc1ccc2c(c1)c1c(n2CCc2ccc(C(=O)O)nc2)CCN(C)C1 [Compound 255]
Solution: 0 (no)

Problem: Form field: inhibition at 1 µM at least 80%? Entry: CN1CCc2c(c3cc(Cl)ccc3n2CC(=O)N2CCNCC2)C1 [Compound 244]
Solution: 0 (no)

Problem: Form field: inhibition at 1 µM at least 80%? Entry: CCOC(=O)N1CCc2c(c3cc(C)ccc3n2CCc2cccnc2)C1 [Compound 217]
Solution: 0 (no)

* * *

measured.target: human recombinant histamine H2 receptor (Homo sapiens, UniProt P25021)
Construct: expressed in transfected cells; host or cells: CHO-K1 cells
Sequence (P25021 whole entry): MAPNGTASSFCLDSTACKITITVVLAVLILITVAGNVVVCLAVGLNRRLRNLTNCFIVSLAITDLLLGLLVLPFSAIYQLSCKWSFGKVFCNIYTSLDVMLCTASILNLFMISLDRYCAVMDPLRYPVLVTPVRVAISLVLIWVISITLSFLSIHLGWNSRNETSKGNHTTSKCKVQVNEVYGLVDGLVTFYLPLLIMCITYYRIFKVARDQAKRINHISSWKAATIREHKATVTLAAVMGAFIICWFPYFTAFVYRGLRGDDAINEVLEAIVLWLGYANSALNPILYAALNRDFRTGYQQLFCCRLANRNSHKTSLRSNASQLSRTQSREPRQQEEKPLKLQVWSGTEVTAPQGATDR
procedure.summary: Histamine H2 radioligand binding ([125I]Aminopotentidine)
measurement.setup: read-out: Inhibition of ligand binding, Hist. H2
Can you tell me inhibition at 1 µM for the items I'm about to list?
Numeric answer only, unit % assumed.

Problem: inhibition at 1 µM for "Cc1ccc2c(c1)c1c(n2CCc2ccc(C)nc2)CCN(C)C1=O" ?
Solution: 11

Problem: inhibition at 1 µM for "Cc1ccc(CCn2c3c(c4cc(Cl)ccc42)CN(C)CC3)cn1" ?
Solution: 72

Problem: inhibition at 1 µM for Cc1ccc2c(c1)c1c(n2CCc2ccccc2)CC(O)N(C)C1=O (centres unmarked) ?
Solution: 16

Problem: inhibition at 1 µM for "CN1CCc2c(c3cc(Cl)ccc3n2CCc2ccc(C(F)(F)F)nc2)C1" ?
Solution: 54

Problem: inhibition at 1 µM for Cc1ccc2c(c1)c1c(n2CCc2ccc(C)nc2)CCN(C)C1 [Dimebon, dimebon, reference compound] ?
Solution: 83

* * *

Can you tell me Inhibition of ligand binding, Ser. 5-HT2C for the items I'm about to list?
measured.target: human recombinant serotonin (5-Hydroxytryptamine) 5-HT2C receptor (Homo sapiens)
Construct: expressed in transfected cells; host or cells: CHO-K1 cells
Sequence (P28335 33-458): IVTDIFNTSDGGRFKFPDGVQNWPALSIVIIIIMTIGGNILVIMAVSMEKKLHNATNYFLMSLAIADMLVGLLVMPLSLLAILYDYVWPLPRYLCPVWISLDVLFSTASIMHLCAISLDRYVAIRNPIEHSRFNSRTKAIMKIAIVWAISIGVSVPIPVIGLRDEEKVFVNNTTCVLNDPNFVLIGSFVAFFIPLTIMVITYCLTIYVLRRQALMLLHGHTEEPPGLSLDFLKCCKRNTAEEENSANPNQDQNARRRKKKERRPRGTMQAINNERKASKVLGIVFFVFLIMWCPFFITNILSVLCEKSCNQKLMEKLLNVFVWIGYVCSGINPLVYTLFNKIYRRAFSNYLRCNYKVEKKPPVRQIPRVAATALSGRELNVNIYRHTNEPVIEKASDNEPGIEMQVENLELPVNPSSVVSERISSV
procedure.summary: Serotonin 5-HT2C radioligand binding ([3H]Mesulergine)
Design: concentration or dose not given beside the values
measurement.setup: percent inhibition of specific binding
Numeric answer only, unit % assumed.

Problem: Inhibition of ligand binding, Ser. 5-HT2C for "Cc1ccc2c(c1)c1c(n2CC(=O)N2CCC(C)CC2)CCN(C)C1" ?
Solution: 23

Problem: Inhibition of ligand binding, Ser. 5-HT2C for "CCOC(=O)N1CCc2c(c3cc(Br)ccc3n2CCc2ccc(C)nc2)C1" ?
Solution: −14

Problem: Inhibition of ligand binding, Ser. 5-HT2C for "Cc1ncc(CCn2c3c(c4cc(Cl)ccc42)CN(C)CC3)cn1" ?
Solution: 58

Problem: Inhibition of ligand binding, Ser. 5-HT2C for "Cc1ccc2c(c1)c1c(n2CC(=O)N2Cc3ccccc3C2)CCN(C)C1" ?
Solution: 44

Problem: Inhibition of ligand binding, Ser. 5-HT2C for "CN1CCc2c(c3cc(Cl)ccc3n2CCc2ccc(F)cc2)C1" ?
Solution: 94

Problem: Inhibition of ligand binding, Ser. 5-HT2C for "CCc1ccc2c(c1)c1c(n2CCc2ccc(C)nc2)CCN(C)C1" ?
Solution: 67

Problem: Inhibition of ligand binding, Ser. 5-HT2C for "CN1CCc2c(c3cc(Cl)ccc3n2CC(=O)N2CCOCC2)C1" ?
Solution: 20

Problem: Inhibition of ligand binding, Ser. 5-HT2C for "Cc1ccc2c(c1)c1c(n2CCc2ccc(CO)nc2)CCN(C)C1" ?
Solution: 76

Problem: Inhibition of ligand binding, Ser. 5-HT2C for Cc1ccc2c(c1)c1c(n2CCc2ccc(C)nc2)C(Br)C(=O)N(C)C1 (stereo not shown) ?
Solution: 2

Problem: Inhibition of ligand binding, Ser. 5-HT2C for "Cc1ccc(CCn2c3c(c4cc(Cl)c(F)cc42)CN(C)CC3)cn1" ?
Solution: 78

Problem: Inhibition of ligand binding, Ser. 5-HT2C for "CN1CCc2c(c3cc(Cl)c(F)cc3n2CCc2ccc(C(F)(F)F)nc2)C1" ?
Solution: 69

Problem: Inhibition of ligand binding, Ser. 5-HT2C for "Cc1ccc2c(c1)c1c(n2CCc2ccccc2)CCN(C(=O)OCC(Cl)(Cl)Cl)C1" ?
Solution: 4

Problem: Inhibition of ligand binding, Ser. 5-HT2C for "CCN1CCc2c(c3ccccc3n2CCc2ccc(C)cc2)C1" ?
Solution: 82

Problem: Inhibition of ligand binding, Ser. 5-HT2C for "CN1CCc2c(c3cc(Cl)ccc3n2CC(=O)N2CCCCC2)C1" ?
Solution: 54

Problem: Inhibition of ligand binding, Ser. 5-HT2C for "Cc1ccc2c(c1)c1c(n2CCc2ccc(C)nc2)CCN(C)C1=O" ?
Solution: −11

Problem: Inhibition of ligand binding, Ser. 5-HT2C for "CC1CCN(C(=O)Cn2c3c(c4cc(Cl)ccc42)CN(C)CC3)CC1" ?
Solution: 36

Problem: Inhibition of ligand binding, Ser. 5-HT2C for "CCOC(=O)c1ccc(CCn2c3c(c4cc(C)ccc42)CN(C)CC3)cn1" ?
Solution: 31

Problem: Inhibition of ligand binding, Ser. 5-HT2C for "Cc1ccc2c(c1)c1c(n2CC(=O)N2CCOCC2)CCN(C)C1" ?
Solution: 17

Problem: Inhibition of ligand binding, Ser. 5-HT2C for "Cc1ccc2c(c1)c1c(n2CCc2cccnc2)CCN(C)C1" ?
Solution: 90
